biological target: T1, recombinant human CTGF-Fc protein (Creative Biomart) (human); assay: SPR (Biacore)
T1 construct: Bought; also called human CTGF with a human IgG1 Fc Tag
T1 sequence (chain, as listed by the source limits assumed): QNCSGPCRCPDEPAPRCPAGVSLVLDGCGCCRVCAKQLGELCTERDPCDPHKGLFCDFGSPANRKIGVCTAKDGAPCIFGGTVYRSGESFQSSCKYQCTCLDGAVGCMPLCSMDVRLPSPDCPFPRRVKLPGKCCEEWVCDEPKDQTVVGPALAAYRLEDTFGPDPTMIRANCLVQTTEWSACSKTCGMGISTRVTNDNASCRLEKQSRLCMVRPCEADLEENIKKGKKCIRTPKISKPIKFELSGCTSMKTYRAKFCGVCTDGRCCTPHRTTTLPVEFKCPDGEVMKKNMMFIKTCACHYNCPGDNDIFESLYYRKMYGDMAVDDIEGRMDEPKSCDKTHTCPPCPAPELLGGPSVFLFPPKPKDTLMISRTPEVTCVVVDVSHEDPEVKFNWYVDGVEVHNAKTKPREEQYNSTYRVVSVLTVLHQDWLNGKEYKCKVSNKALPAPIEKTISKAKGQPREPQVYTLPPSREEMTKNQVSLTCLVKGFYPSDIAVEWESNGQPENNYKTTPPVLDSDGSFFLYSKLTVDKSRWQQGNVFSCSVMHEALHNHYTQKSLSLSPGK
Kd strictly under 0.5 nM means y; at 0.5 nM or over means n.

>>> label_class("lipocalin mutein of SEQ ID NO: 33 (designed binder, also called hNGAL mutein; not shown: C-terminal His-tag) QDSTSDLIPAPPLSKVPLQQNFQDNQFQGKWYVVGWAGNAKLREDKQPFKMSATIYELKEDKSYDVTEVVFEQKKCHYIIKTFVPGSQPGEFTEGNYKRRPRLWSDLVRVVSTNYNQHAMVFFKKVHQNREFFWITLYGRTKELTSELKENFIRFSKSLGLPENHIVFPVPIDQCIDG")
"y"
>>> label_class("lipocalin mutein of SEQ ID NO: 14 (designed binder, also called hNGAL mutein; not shown: C-terminal His-tag) QDSTSDLIPAPPLSKVPLQQNFQDNQFQGKWYVVGLAGNAILREDKYPAKMFATIYELKEDKSYDVTSVRFEAKSCIYTIKTFVPGSQPGEFTRGNIKSAPGQTSTLVRVVSTNYNQHAMVFFKHVSQNREIFVITLYGRTKELTSELKENFIRFSKSLGLPENHIVFPVPIDQCIDG")
"n"
>>> label_class("lipocalin mutein of SEQ ID NO: 9 (designed binder, Parent hNGAL mutein; also called hNGAL mutein) QDSTSDLIPAPPLSKVPLQQNFQDNQFHGKWYVVGLAGNKILRIDKQPAKMFATIYELKEDKSYDVTSVRFEARSCSYTIKTFVPGSQPGEFTAGNIKSAPGQTSTLVRVVSTNYNQHAMVFFKHVSQNRETFVITLYGRTKELTSELKENFIRFSKSLGLPENHIVFPVPIDQCIDGSAWSHPQFEK")
"n"
>>> label_class("lipocalin mutein of SEQ ID NO: 8 (designed binder, also called hNGAL mutein; not shown: C-terminal His-tag) QDSTSDLIPAPPLSKVPLQQNFQDNQFQGKWYVVGLAGNYGLRTDKRPSKMFATIYELKEDKSYDVTSVRFEQERCHYTIRTFVPGSQPGEFTSGNIGNYPGSYSTLVRVVSTNYNQHAMVFFKSVIQNREYFAITLYGRTKELTSELKENFIRFSKSLGLPENHIVFPVPIDQCIDG")
"n"
>>> label_class("lipocalin mutein of SEQ ID NO: 31 (designed binder, also called hNGAL mutein; not shown: C-terminal His-tag) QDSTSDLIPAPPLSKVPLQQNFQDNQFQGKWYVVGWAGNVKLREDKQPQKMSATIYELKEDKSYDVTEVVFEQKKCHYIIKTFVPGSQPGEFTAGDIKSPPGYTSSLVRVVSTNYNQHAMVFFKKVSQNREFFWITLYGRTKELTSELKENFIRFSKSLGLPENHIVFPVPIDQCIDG")
"y"
>>> label_class("lipocalin mutein of SEQ ID NO: 21 (designed binder, also called hNGAL mutein; not shown: C-terminal His-tag) QDSTSDLIPAPPLSKVPLQQNFQDNQFQGKWYVVGLAGNAILREDKQPAKMFATIYELKEDKSYDVTSVRFEAKSCSYTIKTFVPGSQPGEFTAGNIKSAPGQTSTLVRVVSTNYNQHAMVFFKAVRGARESFNIALYGRTKELTSELKENFIRFSKSLGLPENHIVFPVPIDQCIDG")
"n"

These entries and their values trace back to patent US20240228562A1.
